Numbers sourced from ChEMBL document CHEMBL5728306.

- system: Mitogen-activated protein kinase 1 (Homo sapiens, UniProt P28482)
- Sequence (P28482 whole entry): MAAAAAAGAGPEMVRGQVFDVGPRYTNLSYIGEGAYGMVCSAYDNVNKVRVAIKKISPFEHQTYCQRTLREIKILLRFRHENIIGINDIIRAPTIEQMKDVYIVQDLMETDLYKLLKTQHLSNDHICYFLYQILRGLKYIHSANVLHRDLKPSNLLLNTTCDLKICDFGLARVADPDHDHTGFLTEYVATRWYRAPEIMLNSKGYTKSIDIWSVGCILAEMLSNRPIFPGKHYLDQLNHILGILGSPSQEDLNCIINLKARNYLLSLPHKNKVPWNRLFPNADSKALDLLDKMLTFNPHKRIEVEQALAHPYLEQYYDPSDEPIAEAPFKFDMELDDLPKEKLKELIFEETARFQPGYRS
- test-method-notes: ERK1 & ERK2 were then activated by the addition of F1-Substrate, ATP and metal solution and incubated for 1 h at rt. After 1 h, the reaction was terminated by the addition of […] of Termination Buffer (QuickScout Screening Assist MSA; Carna Biosciences) to the well.
value-kind: IC50

Would you kindly share the measured IC50 for Cc1ncc(-c2n[nH]c3ccc(N4CC[C@]5(CCN(CC(=O)N6CC=C(c7ccc(-c8ncn(C)n8)cc7)CC6)C5)C4=O)nc23)s1 ?
< 50 nM
